Biological target: human PF4 (Homo sapiens, UniProt P02776)
Construct: PF4 is a 70 amino acid, lysine-rich 7.8 kDa platelet-specific protein; made in house; host or cells: Escherichia coli BL21DE3 pLysS (pT7-7) and/or Drosophila S2 cells
Sequence (P02776 32-101): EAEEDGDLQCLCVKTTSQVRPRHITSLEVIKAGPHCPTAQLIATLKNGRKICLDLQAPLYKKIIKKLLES
Experiment: Inhibition of PF4 tetramer formation (BS3 cross-linking, SDS-PAGE)
Type: biochemical
Settings: 5 μM inhibitor; read-out: % inhibition of PF4 tetramer formation at single concentration of inhibitor
true (1) means recorded inhibition at 5 µM is 70% or above; false (0) means it is below 70%.

See these solved cases before continuing.
molecule	classification
CC(C)C(=O)NCC(=O)C1C(=O)c2ccc(S(=O)(=O)c3ccc4c(c3)C(=O)C(C(=O)CNC(=O)C(C)C)C4=O)cc2C1=O (stereo not drawn)	true (1)
COc1ccc(NC(=O)C2C(=O)c3ccc(S(=O)(=O)c4ccc5c(c4)C(=O)C(C(=O)Nc4ccc(OC)cc4)C5=O)cc3C2=O)cc1 (stereo not drawn)	false (0)
CC(C)(C)OC(=O)N1CC2(CC(C(=O)C3C(=O)c4ccc(-c5ccc6c(c5)C(=O)C(C(=O)C5CC7(C5)CN(C(=O)OC(C)(C)C)C7)C6=O)cc4C3=O)C2)C1 (stereo not drawn)	true (1)
O=C(c1ccc2c(c1)C(=O)C(C(=O)NCCOCC(F)(F)F)C2=O)c1ccc2c(c1)C(=O)C(C(=O)NCCOCC(F)(F)F)C2=O (stereo not drawn)	false (0)

Q) Is it the case that COC(=O)CCCC(=O)C1C(=O)c2ccc(-c3ccc4c(c3)C(=O)C(C(=O)CCCC(=O)OC)C4=O)cc2C1=O (stereo not drawn) has inhibition at 5 µM reaching or exceeding 70%?
A) true (1)

----------
Biological target: human PF4 (Homo sapiens)
Construct: PF4 is a 70 amino acid, lysine-rich 7.8 kDa platelet-specific protein; made in house; host or cells: Escherichia coli BL21DE3 pLysS (pT7-7) and/or Drosophila S2 cells
Assay: Inhibition of PF4 tetramer formation (BS3 cross-linking, SDS-PAGE)
Type: biochemical
Conditions: read-out: IC50 of PF4 tetramer formation inhibition
Record form. Attribute: pIC50. Fill in for each entry.
One number for each entry, as −log10 of the molar value.

compound	target or test system	pIC50
O=C(COc1ccccc1)C1C(=O)c2ccc(S(=O)(=O)c3ccc4c(c3)C(=O)C(C(=O)COc3ccccc3)C4=O)cc2C1=O (stereo not shown) [Example 144]	human PF4 (Homo sapiens)	5.33

Return reported pIC50 values for all items listed beneath this line.
1. CC(C)(C)OC(=O)N1CCC[C@H]1C(=O)C1C(=O)c2ccc(C(=O)c3ccc4c(c3)C(=O)C(C(=O)[C@@H]3CCCN3C(=O)OC(C)(C)C)C4=O)cc2C1=O (stereo partly shown) [Example 111]
2. O=C1CC(=O)c2cc(Oc3ccc4c(c3)C(=O)CC4=O)ccc21 [Example 7]
3. CCCNC(=O)C1C(=O)c2ccc(C(=O)c3ccc4c(c3)C(=O)C(C(=O)NCCC)C4=O)cc2C1=O (stereo not shown) [Example 15]
4. O=C1c2ccc(Oc3ccc4c(c3)C(=O)C(C(=O)C3CCCC3)C4=O)cc2C(=O)C1C(=O)C1CCCC1 (stereo not shown) [Example 251]
5. CC(C)OCC(=O)C1C(=O)c2ccc(S(=O)(=O)c3ccc4c(c3)C(=O)C(C(=O)COC(C)C)C4=O)cc2C1=O (stereo not shown) [Example 379]
6. COC(=O)CCCC(=O)C1C(=O)c2ccc(C(=O)c3ccc4c(c3)C(=O)C(C(=O)CCCC(=O)OC)C4=O)cc2C1=O (stereo not shown) [Example 225]

A)
6.30
5.95
5.52
5.52
6.18
5.49

----------
Record form. Attribute: inhibition at 5 µM. Fill in for each entry.
Target: human PF4 (Homo sapiens)
Construct: PF4 is a 70 amino acid, lysine-rich 7.8 kDa platelet-specific protein; made in house; host or cells: Escherichia coli BL21DE3 pLysS (pT7-7) and/or Drosophila S2 cells
Experiment: Inhibition of PF4 tetramer formation (BS3 cross-linking, SDS-PAGE)
Format: biochemical
Conditions: 5 μM inhibitor; read-out: % inhibition of PF4 tetramer formation at single concentration of inhibitor
Numbers only, in %.

molecule	target or test system	property name	observed value
CCCCC(=O)C1C(=O)c2ccc(C(=O)c3ccc4c(c3)C(=O)C(C(=O)CCCC)C4=O)cc2C1=O (stereo not drawn)	human PF4 (Homo sapiens)	inhibition at 5 µM	100
CC(C)CCCC(=O)C1C(=O)c2ccc(C(=O)c3ccc4c(c3)C(=O)C(C(=O)CCCC(C)C)C4=O)cc2C1=O (stereo not drawn)	human PF4 (Homo sapiens)	inhibition at 5 µM	62
COC1CCC(C(=O)C2C(=O)c3ccc(S(=O)(=O)c4ccc5c(c4)C(=O)C(C(=O)C4CCC(OC)CC4)C5=O)cc3C2=O)CC1 (stereo not drawn)	human PF4 (Homo sapiens)	inhibition at 5 µM	89
O=C(NCC1CCCO1)C1C(=O)c2ccc(S(=O)(=O)c3ccc4c(c3)C(=O)C(C(=O)NCC3CCCO3)C4=O)cc2C1=O (stereo not drawn)	human PF4 (Homo sapiens)	inhibition at 5 µM	38
CC(C)(C)OC(=O)N1CC[C@@H](C(=O)C2C(=O)c3ccc(C(=O)c4ccc5c(c4)C(=O)C(C(=O)[C@@H]4CCN(C(=O)OC(C)(C)C)C4)C5=O)cc3C2=O)C1 (stereo partly drawn)	human PF4 (Homo sapiens)	inhibition at 5 µM	88

Q) Report inhibition at 5 µM for O=C(NC1CC1)C1C(=O)c2ccc(-c3ccc4c(c3)C(=O)C(C(=O)NC3CC3)C4=O)cc2C1=O (stereo not drawn) tested on human PF4 (Homo sapiens).
A) 84

----------
Target: human PF4 (Homo sapiens, UniProt P02776)
Construct: PF4 is a 70 amino acid, lysine-rich 7.8 kDa platelet-specific protein; made in house; host or cells: Escherichia coli BL21DE3 pLysS (pT7-7) and/or Drosophila S2 cells
Experiment: Inhibition of PF4 tetramer formation (BS3 cross-linking, SDS-PAGE)
Assay type: biochemical
Settings: 3 μM inhibitor (column A); read-out: % inhibition of PF4 tetramer formation at single concentration of inhibitor
property name: inhibition at 3 µM (%)
Numbers only, in %.

compound	inhibition at 3 µM / %
CC(C)(C)OC(=O)NCCCC(=O)C1C(=O)c2ccc(C(=O)c3ccc4c(c3)C(=O)C(C(=O)CCCNC(=O)OC(C)(C)C)C4=O)cc2C1=O (centres unmarked)	34
CSCCC(=O)C1C(=O)c2ccc(C(=O)c3ccc4c(c3)C(=O)C(C(=O)CCSC)C4=O)cc2C1=O (centres unmarked)	41
O=C1c2ccc(S(=O)(=O)c3ccc4c(c3)C(=O)C(C(=O)C3CC3)C4=O)cc2C(=O)C1C(=O)C1CC1 (centres unmarked)	28
COCCOCCNCC(=O)C1C(=O)c2ccc(C(=O)c3ccc4c(c3)C(=O)C(C(=O)CNCCOCCOC)C4=O)cc2C1=O (centres unmarked)	4
CC(=O)OC[C@H]1O[C@@H](OC(C)=O)[C@H](NC(=O)C2C(=O)c3ccc(C(=O)c4ccc5c(c4)C(=O)C(C(=O)N[C@H]4[C@H](OC(C)=O)O[C@H](COC(C)=O)[C@@H](OC(C)=O)[C@@H]4OC(C)=O)C5=O)cc3C2=O)[C@@H](OC(C)=O)[C@@H]1OC(C)=O (some centres unmarked)	23

Return reported inhibition at 3 µM values for all items listed beneath this line.
1. CC(=O)C1C(=O)c2ccc(Oc3ccc4c(n3)C(=O)C(C(C)=O)C4=O)cc2C1=O (centres unmarked)
2. CC(C)OC/C(O)=C1/C(=O)c2ccc(C(=O)c3ccc4c(c3)C(=O)/C(=C(/O)COC(C)C)C4=O)cc2C1=O

A)
1: 22; 2: 30

Return reported inhibition at 3 µM values for all items listed beneath this line.
1. CS(=O)(=O)N1CCC(NC(=O)C2C(=O)c3ccc(Oc4ccc5c(c4)C(=O)C(C(=O)NC4CCN(S(C)(=O)=O)CC4)C5=O)cc3C2=O)CC1 (centres unmarked)
2. O=C1c2ccc(Oc3ccc4c(c3)C(=O)C(C(=O)C3CCCC3)C4=O)cc2C(=O)C1C(=O)C1CCCC1 (centres unmarked)
3. O=C1c2ccc(S(=O)(=O)c3ccc4c(c3)C(=O)C(C(=O)[C@H]3CCCN3)C4=O)cc2C(=O)C1C(=O)[C@@H]1CCNC1 (some centres unmarked)
4. CSCC[C@H](NC(=O)OC(C)(C)C)C(=O)C1C(=O)c2ccc(C(=O)c3ccc4c(c3)C(=O)C(C(=O)[C@H](CCSC)NC(=O)OC(C)(C)C)C4=O)cc2C1=O (some centres unmarked)

A)
21
45
39
38

Return reported inhibition at 3 µM values for all items listed beneath this line.
1. O=C(c1ccc2c(c1)C(=O)C(C(=O)C1CCC1)C2=O)c1ccc2c(c1)C(=O)C(C(=O)C1CCC1)C2=O (centres unmarked)
2. O=C(CSc1ccncc1)C1C(=O)c2ccc(S(=O)(=O)c3ccc4c(c3)C(=O)C(C(=O)CSc3ccncc3)C4=O)cc2C1=O (centres unmarked)
3. O=C(NCC1CCS(=O)(=O)C1)C1C(=O)c2ccc(Oc3ccc4c(c3)C(=O)C(C(=O)NCC3CCS(=O)(=O)C3)C4=O)cc2C1=O (centres unmarked)
4. NCC(=O)C1C(=O)c2ccc(C(=O)c3ccc4c(c3)C(=O)C(C(=O)CN)C4=O)cc2C1=O (centres unmarked)

A)
[56, 51, 77, 24]
